Reported TGI values are given for each entry in this list.
# Test system: SK-MEL-5 melanoma
# Measurement Protocol: NCI tumour cell line growth inhibition, 48 h
Observed Property: TGI

Compound	Observed Property	Result
CC(C)=CCC[C@@H](C)[C@H]1CC[C@@]2(C)[C@@H]3CC[C@H]4C(C)(C)[C@@H](O)CC[C@@]45C[C@@]35CC[C@]12C	TGI	> 64.4 µM
COc1cc2cc(NCc3cccc(Cl)c3)nc(C)c2cc1OC	TGI	13.7 µM
Cc1ccc(S(=O)c2ccccc2[N+](=O)[O-])cc1 (stereo not drawn)	TGI	> 100 µM
CCNC1=C(NC(=O)c2ccc(F)cc2)C(=O)c2ccccc2C1=O	TGI	> 100 µM
COc1cc2nc3n(c2cc1OC)C(O)c1c(Cl)nc(SC)nc1S3 (stereo not drawn)	TGI	8.94 µM
CN1C2CCC1/C(=C/c1cccc3c1OCO3)C(=O)/C2=C\c1cccc2c1OCO2	TGI	> 100 µM
O=[N+]([O-])c1ccc(C2=NCCO2)cc1	TGI	> 100 µM
C[C@@H]1CN2[C@H]3[C@@H]1CC[C@]31CCC(=O)O[C@]1(C)[C@H]1CC[C@H]3CCC=C3[C@@H]12	TGI	> 30 µM
C/C(=N/NC(=O)c1ccccc1S(N)(=O)=O)C(CN1CCCCC1)C(C1=C(O)C2C=CC=CC2OC1=O)c1ccccc1 (stereo not drawn)	TGI	> 100 µM
C=CCC1(O)c2ccccc2C(=O)c2c(OCC(=O)OCC)ccc(OCC(=O)OCC)c21 (stereo not drawn)	TGI	> 100 µM
O=C(CCc1nnc2s/c(=C\c3ccc([N+](=O)[O-])cc3)c(=O)n12)Nc1ccc(Cl)c(Cl)c1	TGI	> 100 µM
Sc1cccc2cccnc12	TGI	4.25 µM
O=C(O)CN1CCSc2ccccc2CN(CC(=O)O)CCSc2ccccc2C1	TGI	> 100 µM
CCC(=C(c1ccc(OCCN2CCCCC2)cc1)c1ccc(OCCN2CCCCC2)cc1)c1ccc(Cl)cc1	TGI	5.3 µM
COc1ccc(/C=C/C(=O)c2cc(OC)cc(OC)c2)cc1	TGI	24.2 µM
COC(=O)N[C@H]1CCc2cc(OC)c(OC)c(OC)c2-c2ccc(SC)c(=O)cc21	TGI	0.0191 µM
O=C([CH-]C(=O)c1ccccc1)c1ccccc1.O=C([CH-]C(=O)c1ccccc1)c1ccccc1.O=C([CH-]C(=O)c1ccccc1)c1ccccc1.[Ga+3]	TGI	> 100 µM
CC(C)(CN1CCCCC1)C(=O)/C=C/c1ccccc1	TGI	25.8 µM
Cc1cc(N(CCC#N)CCC#N)ccc1/C=C(\NC(=O)/C=C/c1ccccc1)C(=O)N=[N+]=[N-]	TGI	> 100 µM
CNC(=O)Oc1cc(C(C)C)ccc1Sc1ccc(C(C)C)cc1OC(=O)NC	TGI	11.8 µM
Cc1cccc(Nc2nc3ccccc3nc2NS(=O)(=O)c2ccc(N)cc2)c1	TGI	> 100 µM
COC(=O)NC(=O)NC(Cc1ccccc1)NC(=O)OCc1ccccc1 (stereo not drawn)	TGI	> 100 µM
COC(=O)c1cc2ccc(O)c(O)c2cn1	TGI	28.2 µM
CC(=O)OCC1OC(N2C(=O)[C@@H](Oc3ccccc3)[C@H]2/C=C/c2ccccc2)C(OC(C)=O)C(OC(C)=O)C1OC(C)=O (stereo partly drawn)	TGI	> 100 µM
CN(C)CCC(N)(P(=O)([O-])[O-])P(=O)([O-])[O-].N.N.[Pt+2]	TGI	> 100 µM
CC(C)OC(=O)NCCn1cc(-c2ccccc2)nn1	TGI	> 100 µM
Clc1ccc(/C=C/c2nc(-c3ccccc3)cn3c2nc2ccccc23)cc1Cl	TGI	> 100 µM
COC(=O)/C=C1\SC2(OC1=Nc1ccccc1)C1CC3CC(C1)CC2C3 (stereo not drawn)	TGI	> 100 µM
COc1nc(NC2OC(COC(C)=O)C(OC(C)=O)C(OC(C)=O)C2OC(C)=O)c(N=CC=Nc2c(NC3OC(COC(C)=O)C(OC(C)=O)C(OC(C)=O)C3OC(C)=O)nc(OC)[nH]c2=O)c(=O)[nH]1 (stereo not drawn)	TGI	> 100 µM
COc1ccc2c(-c3csc(-c4c[nH]c5ccc(Br)cc45)n3)c[nH]c2c1	TGI	> 100 µM
Cc1c(C(Cc2ccccc2N(C)C(=O)/C=C\C(=O)O)c2c[nH]c3ccccc23)c2ccccc2n1C (stereo not drawn)	TGI	29.8 µM
COc1ccc(-c2cc(N3CCN(c4ccc(Cl)cc4)CC3)c(C#N)c(=O)o2)cc1	TGI	31.3 µM
O=c1nc2n(-c3cccc(Cl)c3)c3ccc([N+](=O)[O-])cc3cc-2c(=O)[nH]1	TGI	12.8 µM
O=C(Cc1ccccc1)NN1C(=O)C(Cl)C1c1ccc(Cl)cc1 (stereo not drawn)	TGI	> 100 µM
O=C1CSC(c2c[nH]c3ccccc23)N1c1cccc(Cl)c1 (stereo not drawn)	TGI	> 100 µM
O=S1OC(c2ccccc2)(c2ccccc2)C(c2ccccc2)(c2ccccc2)O1	TGI	> 100 µM
C/C=C1/CC(C(=O)OC)N(C(=O)OCc2ccccc2)C1=S (stereo not drawn)	TGI	> 100 µM
COc1cc(/C=C/C(=O)c2cccc(-n3cc(-c4ccccc4)[nH]c3=O)c2)cc(OC)c1OC	TGI	2.69 µM

---

# Tested on: OVCAR-4 ovarian
# Measurement Protocol: NCI tumour cell line growth inhibition, 48 h
# Lookup of reported TGI keyed by entry

Compound	Unit Label	Reading Qualifier	TGI
N#Cc1cc2c(cc1C#N)SCCSCCCSCCS2	µM	>	100
CSC(=S)CC(O)[C@@H]1CC2c3ccccc3C1c1ccccc12 (stereo not given in full)	µM	=	27.5
O=C1C=CC2(C=C1)O[C@H](COCc1ccccc1)[C@@H](COCc1ccccc1)O2	µM	=	4.66
O=P1(NCCCl)OCCCN1CCCl (stereo not given)	µM	=	447
N=c1sc2ccccc2n1CCS (tested in a mixture with another compound)	µM	=	46.9

---

TGI listing for selected molecules.
# Tested on: NCI-H23 lung
# Measurement Protocol: NCI tumour cell line growth inhibition, 48 h

Molecule	TGI
COc1cc2nc3n(c2cc1OC)C(O)c1c(Cl)nc(SC)nc1S3 (configuration not stated)	18.3 µM
CC1=C(CCCOC(=O)[C@H](N)CC(C)C)C2=C(C)C3(CC3)[C@@](C)(O)C(=O)C2=C1	3.23 µM
CC(C)=CCC/C(C)=C/CC/C(C)=C/CSC[C@H](NC(=O)CCCCCN1CCN(C)CC1)C(=O)NC1CCCCCC1	8.78 µM
CC1CCCCCC(=O)c2c(O)cc(O)cc2CC(=O)O1 (configuration not stated)	> 100 µM
O=C(Cc1ccccc1)NN1C(=O)C(Cl)C1c1ccc(Cl)cc1 (configuration not stated)	> 100 µM
COC(=O)N[C@H]1CCc2cc(OC)c(OC)c(OC)c2-c2ccc(SC)c(=O)cc21	> 100 µM
CCC(=C(c1ccc(OCCN2CCCCC2)cc1)c1ccc(OCCN2CCCCC2)cc1)c1ccc(Cl)cc1	> 16.7 µM
C/C(=N/NC(=O)c1ccccc1S(N)(=O)=O)C(CN1CCCCC1)C(C1=C(O)C2C=CC=CC2OC1=O)c1ccccc1 (configuration not stated)	> 100 µM
COc1cccc2c1C(=O)c1c(O)c3c(c(O)c1C2=O)C[C@@](O)(C(=O)CO)CC3OC1CC(N(C)CCOCC(OC(C)=O)OC(C)=O)C(O)C(C)O1 (some centres not stated)	> 0.01 µM
CC(C)(C)N(Cc1ccccc1)C(=O)/C=C\S(=O)c1ccccc1 (configuration not stated)	7.74 µM
CC(=O)C1(O)CC2(c3ccccc3)C(=O)C1(c1ccccc1)C(c1ccccc1)=C2c1ccccc1 (configuration not stated)	> 100 µM
N#CC(C#N)=c1c(=O)c2c3ccccc3cc3cccc1c32	> 100 µM
O=C1C=CC2(C=C1)O[C@H](COCc1ccccc1)[C@@H](COCc1ccccc1)O2	4.29 µM
CC[C@@H]1/C=C/C=C/C[C@H](C)[C@@H](O)[C@@H](C)C(=O)[C@H](C)[C@@H](O)[C@H](C)C(=O)[C@H](C)[C@@H](O)[C@H](C)/C=C/C(=O)O[C@H]2[C@@H](C)[C@@H](CC1)O[C@@]1(CC[C@@H](C)[C@@H](CC(C)O)O1)[C@@H]2C (some centres not stated)	> 25 µM
COc1cc(/C=C2\CC3C4CC=C5CC(OC(C)=O)CC[C@]5(C)C4CC[C@]3(C)C2=O)ccc1OCCN1CCCC1 (some centres not stated)	27.7 µM
COc1ccc2c(O)c(Oc3ccc(Cl)cc3)c(=O)oc2c1	> 100 µM
CC(C)=CCc1cc2c(cc1O)C1=C(C(=O)C3=C(NCCS3(=O)=O)C1=O)C(C=C(C)C)O2 (configuration not stated)	> 16.7 µM

---

We begin with a simple list: items and their reported TGI.
# Test system: SF-295 CNS
# Measurement Protocol: NCI tumour cell line growth inhibition, 48 h
Observed Property: TGI

Compound	Result
Cc1ccc(-c2n[nH]c(=O)n2/N=C\c2ccccc2O)cc1	> 100 µM
NS(=O)(=O)c1ccc(N(/C=C/C(=O)C(F)(F)F)CC(=O)c2ccc(F)cc2)cc1	85.7 µM
Cc1ccc(N)c(S)c1	43.4 µM
O=C1NC(=O)C(c2c[nH]c3ccccc23)=C1c1c[nH]c2ccccc12	> 25 µM
COC(=O)C(=O)C(C(=O)C(=O)Nc1ccc(Cl)c(Cl)c1)c1nc2ccc(C(=O)c3ccccc3)cc2[nH]c1=O (stereo not given)	> 100 µM
Cn1cc(-c2ccc3nc(-c4ccc(CC(=O)Nc5cc(C(C)(C)C)no5)cc4)cnc3c2)cn1	> 3 µM
CN1CCN(Cc2ccc(NC(=O)c3cncc(C#Cc4cnc(N)c5ncccc45)c3)cc2C(F)(F)F)CC1	15.5 µM
CC(=O)c1ccc(Br)cc1NC1=CC(=O)c2ncccc2C1=O	14.3 µM
COc1cccc2c1nc(C(F)F)n2-c1nc(-c2ccc(NS(=O)(=O)CCN(C)C)cc2)nc(N2CCOCC2)n1	1.44 µM
O=C(O)c1ccc(N(/C=C/C(=O)C(F)(F)F)Cc2ccc(Cl)cc2)cc1	67 µM
COc1ccc2c(c1)/C(=C/c1c(O)[nH]c(=S)[nH]c1=O)C=N2	> 100 µM
O=C(CCc1n[nH]c(=S)o1)Nc1cc(Cl)ccc1Cl	> 100 µM
NC(Cc1ccc(CP(=O)(O)O)cc1)C(=O)O (stereo not given)	> 100 µM
C=CCOC(=O)Cn1cnc2c(N)ncnc21	> 100 µM
Cc1c(C(Cc2ccccc2N(C)C(=O)/C=C\C(=O)O)c2c[nH]c3ccccc23)c2ccccc2n1C (stereo not given)	28.8 µM
Cc1ccc(S(=O)c2ccccc2[N+](=O)[O-])cc1 (stereo not given)	> 100 µM
C=CCC1(O)c2ccccc2C(=O)c2c(OCC(=O)OCC)ccc(OCC(=O)OCC)c21 (stereo not given)	> 100 µM
COC(=O)[C@@H](C)C[C@H](Cc1ccccc1)NC(=O)c1nc([C@@H](C[C@H](C(C)C)N(C)C(=O)[C@@H](NC(=O)[C@H]2C[C@H](O)CCN2C)C(C)C)OC(C)=O)sc1C(C)C	> 11.1 µM
O=C(O)c1cc(CCc2ccc(O)c(O)c2)ccc1O	> 100 µM
CC(=O)CCC#Cc1ccccc1C(=O)C(C)=[N+]=[N-]	> 100 µM
Cc1cc(I)cc(CNCCN(C)C)c1O	> 88.1 µM
Cc1ccc(S(=O)(=O)NNC(=O)Nc2cccc(C(F)(F)F)c2)cc1	> 100 µM
CCNC1=C(NC(=O)c2ccc(F)cc2)C(=O)c2ccccc2C1=O	> 100 µM
O=C(/C=C/c1ccccc1)NC1C=Nc2ccc([N+](=O)[O-])cc2NC1=O (stereo not given)	> 100 µM
CC(C)=CCC[C@@H](C)[C@H]1CC[C@@]2(C)[C@@H]3CC[C@H]4C(C)(C)[C@@H](O)CC[C@@]45C[C@@]35CC[C@]12C	> 78.7 µM
NC(N)=N/N=C/c1c(-c2ccccc2[N+](=O)[O-])nc2sccn12	50 µM
O=C(O)CN1CCSc2ccccc2CN(CC(=O)O)CCSc2ccccc2C1	> 100 µM
N=c1sc2ccccc2n1CCS (tested in a mixture with another compound)	42 µM
CCCc1nnc2sc(COc3ccc(OCc4nn5c(CCC)nnc5s4)c(Cl)c3)nn12	> 100 µM
N#CC1=C(N)Oc2c(sc3c(Br)cccc23)C1c1ccc([N+](=O)[O-])cc1 (stereo not given)	11.1 µM
CC(=O)OCC1OC(n2c3c(c(-c4ccc(C)cc4)c(C#N)c2=S)C(=O)CC(C)(C)C3)C(OC(C)=O)C(OC(C)=O)C1OC(C)=O (stereo not given)	89 µM
CC(=O)OCC1OC(N2C(=O)[C@@H](Oc3ccccc3)[C@H]2/C=C/c2ccccc2)C(OC(C)=O)C(OC(C)=O)C1OC(C)=O (stereo not given in full)	> 100 µM
CN(Cc1cnc2nc(N)nc(N)c2n1)c1ccc(C(=O)NCCCS(=O)(=O)O)cc1	> 100 µM
O=c1nc2n(-c3cccc(Cl)c3)c3ccc([N+](=O)[O-])cc3cc-2c(=O)[nH]1	10.9 µM
Cn1cc(C2=C(c3ccsc3)C(=O)NC2=O)c2ccccc21	> 25 µM
